TGI by entry:
test system: MCF7 breast; experiment: NCI tumour cell line growth inhibition, 48 h

# count of solved cases: 3
Cc1nnc(N)s/c1=N/O = > 100 µM
CCCCCCCCCCCCCCCC(=O)OCC(COP(=O)(O)OCCNC(=O)CCSSc1ccccn1)OC(=O)CCCCCCCCCCCCCCC (stereo not given) = > 100 µM
CCC(=C(c1ccc(OCCN(CC)CC)cc1)c1ccc(OCCN(CC)CC)cc1)c1ccc(Cl)cc1 = 0.861 µM

So, `COc1ccc(-c2ccc(/C=N/n3c(COc4ccc(Cl)c(C)c4)nn(CN4CCOCC4)c3=S)o2)c([N+](=O)[O-])c1` ? Its TGI was > 100 µM

So, `O=NNc1nc(-c2ccccn2)nc2ccccc12` ? Its TGI was > 100 µM

So, COc1cc(COC(=O)NC(Cc2cccs2)C(=O)O)c([N+](=O)[O-])cc1OC (stereo not given) ? Its TGI was > 100 µM

So, `O=C(CCc1ccccc1)NCCc1ccc(O)c(O)c1` ? Its TGI was 93.9 µM

So, `Cc1cc(NS(=O)(=O)c2ccc(NC(NC(=O)OC(C)C)(C(F)(F)F)C(F)(F)F)cc2)nc(C)n1` ? Its TGI was > 100 µM

So, `Cc1cc(C2(c3cc(C)c(O)c4ncccc34)OC(=O)c3ccccc32)c2cccnc2c1O` ? Its TGI was > 100 µM

So, COc1ccc(C[C@H](N)C(=O)N[C@@H]2[C@@H](CO)OC(n3cnc4c(N(C)C)ncnc43)[C@@H]2O)cc1 (stereo not given in full) ? Its TGI was 0.621 µM

###

tested on: SF-268 CNS; assay: NCI tumour cell line growth inhibition, 48 h; in the data active means GI50 below about 0.43 µM; inactive means the rest
Respond with a class label; see active, inactive

Below, 3 molecules whose answers are already recorded.
Oc1ccc(/C=N/Nc2nnc(N/N=C/c3ccc(O)cc3O)c3ccccc23)c(O)c1 = active
O=C(NCc1cccnc1)c1ccc([N+](=O)[O-])o1 = inactive
O=C1COc2c(CCNCCN(C(=O)CCNCCc3ccc(Cl)c(Cl)c3)C3CCCCC3)ccc(O)c2N1 = inactive

Let's switch to this molecule now.
State the result this test recorded for `O=C1C(=O)c2c(ccc3ccccc23)-c2ccccc21` .
inactive

###

system: HCT-15 colon; test: NCI tumour cell line growth inhibition, 48 h
Measurement Label: TGI

Considering `Nc1nc(Nc2cc(F)c(Cl)c(F)c2)cc(=O)[nH]1` , its TGI with HCT-15 colon was recorded as > 100 µM

###

tested on: TK-10 renal; test: NCI tumour cell line growth inhibition, 48 h
GI50 by entry:

# count of solved cases: 5
Brc1ccc2c(c1)-c1ccccc1C1=NCCN12 = 1.5 µM
Cn1c(=O)c(Oc2ccc(F)cc2F)cc2cnc(NC3CCC(O)CC3)nc21 (stereo unspecified) = 24.6 µM
O=C(/C=C/N1CCN(c2cccc(Cl)c2)CC1)c1ccc(Cl)cc1 = 30.8 µM
O=C1COc2c(CCNCCN(C(=O)CCNCCc3ccc(Cl)c(Cl)c3)C3CCCCC3)ccc(O)c2N1 = 14.1 µM
Nc1ccc(N)c2c1C(=O)c1cccc([N+](=O)[O-])c1C2=O = 3.21 µM

For the next question, use this molecule.
So, `c1csc(-c2[nH]nc3c2CCc2ccccc2-3)c1` ? Its GI50 was 0.862 µM
